# System: Human immunodeficiency virus 1
# Test Name: Antiviral activity against wild type HIV1 virus
# Format: functional, organism-based
pEC50: −log10 of the molar value.
Threshold check on pEC50: at or above 7 gives satisfied, strictly below gives not satisfied.

{"Substance Smiles": "COc1ccc([C@H]2CC(=O)N(c3cccc(O)c3)C2)cc1OC1CCCC1", "Target Under Test": "Human immunodeficiency virus 1", "Label Value": "not satisfied"}

Please indicate if the recorded pEC50 for COc1ccc([C@H]2CC(=O)N(Cc3cccc(C#N)c3)C2)cc1OC1CCCC1 meets or exceeds 7.
not satisfied

Threshold query (pEC50 >= 7) on COc1ccc([C@H]2CC(=O)N(c3cccc(NS(=O)(=O)c4cccc(F)c4)c3)C2)cc1OC1CCCC1
satisfied

Given COc1ccc([C@H]2CC(=O)N(C(C)=O)C2)cc1OC1CCCC1 , state whether its pEC50 is at least 7.
not satisfied

Can COc1ccc([C@H]2CC(=O)N(c3cccc(NS(=O)(=O)c4c(Br)nn(C)c4Cl)c3)C2)cc1OC1CCCC1 be said to have pEC50 at or above 7?
satisfied

Tell me whether pEC50 is at least 7 here: COc1ccc([C@H]2CC(=O)N(c3ccc(C)c(N)c3)C2)cc1OC1CCCC1
not satisfied

# check: pEC50 of COc1ccc([C@H]2CC(=O)N(c3cccc(NC(=O)C(C)=O)c3)C2)cc1OC1CCCC1 is greater than or equal to 7
not satisfied

For this compound, is measured pEC50 7 or higher? COc1ccc([C@H]2CC(=O)N(c3cccc(N)c3C)C2)cc1OC1CCCC1
not satisfied

---

# Tested on: Human immunodeficiency virus 1
# Test Name: Antiviral activity against wild type HIV1 virus
# Format: functional, organism-based
Measure Name: EC50 (nM)
Note: unit nM is implicit; provide only the numeric part.

The examples below pair each entry with its known result.
{"Compound": "Cc1ccnc2c1NC(=O)c1cccnc1N2C1CC1 [NEVIRAPINE]", "Target Under Test": "Human immunodeficiency virus 1", "EC50 (nM)": 50}
{"Compound": "COc1ccc([C@H]2CC(=O)N(c3cccc(NS(=O)(=O)c4cccc(C)c4)c3)C2)cc1OC1CCCC1", "Target Under Test": "Human immunodeficiency virus 1", "EC50 (nM)": 46}

// switching to the query compound
Form field: reported EC50 of COc1ccc([C@H]2CC(=O)N(c3ccc(N)cc3)C2)cc1OC1CCCC1
1860

---

# Tested on: Human immunodeficiency virus 1
# Test Name: Antiviral activity against wild type HIV1 virus
# Assay type: functional, organism-based
pEC50: −log10 of the molar value.
Measure Name: pEC50

{"Molecule": "COc1ccc([C@H]2CC(=O)N(Cc3cccc(N)c3)C2)cc1OC1CCCC1", "pEC50": "< 5.00"}
{"Molecule": "COc1ccc([C@H]2CC(=O)N(Cc3cccc([N+](=O)[O-])c3)C2)cc1OC1CCCC1", "pEC50": "< 5.00"}
{"Molecule": "COc1ccc([C@H]2CC(=O)N(c3cccc([S+](C)[O-])c3)C2)cc1OC1CCCC1 (some centres undefined)", "pEC50": "< 5.00"}

Proceeding to the next molecule to report its pEC50.
Look up pEC50 with Human immunodeficiency virus 1 for this molecule: COc1ccc([C@H]2CC(=O)N(c3cc(N)cc(N)c3)C2)cc1OC1CCCC1
< 5.00
